ASSAYED_TARGET: ALDH2 (Homo sapiens, UniProt P05091)
Sequence (P05091 18-517): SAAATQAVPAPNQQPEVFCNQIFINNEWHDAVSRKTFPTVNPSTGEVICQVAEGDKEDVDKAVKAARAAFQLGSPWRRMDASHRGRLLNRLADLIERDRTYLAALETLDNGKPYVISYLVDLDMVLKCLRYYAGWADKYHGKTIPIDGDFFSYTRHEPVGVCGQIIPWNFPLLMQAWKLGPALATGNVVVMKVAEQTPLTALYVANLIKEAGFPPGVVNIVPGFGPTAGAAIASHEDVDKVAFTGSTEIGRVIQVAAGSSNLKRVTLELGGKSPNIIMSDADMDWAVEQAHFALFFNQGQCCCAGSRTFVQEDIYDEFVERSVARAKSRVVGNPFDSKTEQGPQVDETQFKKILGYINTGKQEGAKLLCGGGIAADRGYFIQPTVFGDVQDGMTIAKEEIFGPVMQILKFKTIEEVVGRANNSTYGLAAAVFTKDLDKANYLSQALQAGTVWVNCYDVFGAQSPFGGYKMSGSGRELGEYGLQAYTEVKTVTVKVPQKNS
MEASURED_METRIC: IC50

Would you please look over these solved cases?
CC1(c2cccc(F)c2)CCCN1CCOc1ccc2c(c1)CCC(=O)N2 (stereo not shown)	≥ 100 µM
O=C1CCc2cc(OCCN3CCCC3c3cc(F)cc(F)c3)ccc2N1 (stereo not shown)	≥ 100 µM
Cn1cc(C2CCCN2CCOc2ccc3c(c2)SCC(=O)N3)cn1 (stereo not shown)	≥ 100 µM

Kindly review the next compound as well.
Q: Tell me IC50 reported for CCC1Oc2cc(OCCN3CCCC3c3cccc(F)c3)ccc2NC1=O (stereo not shown)
Result: ≥ 100 µM
